Data provenance is paper PMC3961306.

Test system: panel of more than 300 wild-type and mutant kinases (313 kinase panel)
Assay: Kinase profiling in a biochemical assay panel (mobility shift assays and ELISA), %-inhibition at 1 μM; selectivity entropy
Conditions: 1 µM
experimental_endpoint: %-inhibition of EGFR(d746-750)
Remember to follow the number with its unit.

compound="COc1cc(Nc2c(C#N)cnc3cc(OCCCN4CCN(C)CC4)c(OC)cc23)c(Cl)cc1Cl [bosutinib]" experimental_value=100%
compound="C[C@@H](Oc1cc(-c2cnn(C3CCNCC3)c2)cnc1N)c1c(Cl)ccc(F)c1Cl [crizotinib]" experimental_value=2%
compound="COc1cc2c(Nc3ccc(Br)cc3F)ncnc2cc1OCC1CCN(C)CC1 [vandetanib]" experimental_value=100%

Asked: Look up %-inhibition of EGFR(d746-750): N#CC[C@H](C1CCCC1)n1cc(-c2ncnc3[nH]ccc23)cn1 [ruxolitinib]
Given back: -1.14%

---

Biological target: panel of more than 300 wild-type and mutant kinases (313 kinase panel) (Homo sapiens, UniProt Q05655)
Assay: Kinase profiling in a biochemical assay panel (mobility shift assays and ELISA), %-inhibition at 1 μM; selectivity entropy
Details: kinase PKCδ; 1 μM
experimental_endpoint: %-inhibition of PKCδ (%)
Answer with a number only, understood to be in %.

Record excerpt, results attached:
molecule=COc1cc(Nc2c(C#N)cnc3cc(OCCCN4CCN(C)CC4)c(OC)cc23)c(Cl)cc1Cl units_of_measure=% experimental_value=63
molecule=CC(C)(C)c1nc(-c2cccc(NS(=O)(=O)c3c(F)cccc3F)c2F)c(-c2ccnc(N)n2)s1 units_of_measure=% experimental_value=-6
molecule=COc1cc2c(Nc3ccc(Br)cc3F)ncnc2cc1OCC1CCN(C)CC1 units_of_measure=% experimental_value=-5.39
molecule="COc1cc2nccc(Oc3ccc(NC(=O)C4(C(=O)Nc5ccc(F)cc5)CC4)cc3)c2cc1OC [cabozantinib]" units_of_measure=% experimental_value=-0.835
molecule=N#CC[C@H](C1CCCC1)n1cc(-c2ncnc3[nH]ccc23)cn1 units_of_measure=% experimental_value=2

Asked: Look up %-inhibition of PKCδ: Cc1ccc(C(=O)Nc2ccc(CN3CCN(C)CC3)c(C(F)(F)F)c2)cc1C#Cc1cnc2cccnn12
Given back: 50

Asked: Look up %-inhibition of PKCδ: CNC(=O)c1cc(Oc2ccc(NC(=O)Nc3ccc(Cl)c(C(F)(F)F)c3)c(F)c2)ccn1
Given back: 2.2

Asked: Look up %-inhibition of PKCδ: C[C@@H](Oc1cc(-c2cnn(C3CCNCC3)c2)cnc1N)c1c(Cl)ccc(F)c1Cl
Given back: -1.14

---

Molecular target: panel of more than 300 wild-type and mutant kinases (313 kinase panel) (Homo sapiens)
Assay: Kinase profiling in a biochemical assay panel (mobility shift assays and ELISA), %-inhibition at 1 μM; selectivity entropy
Settings: kinase DCAMKL2; compound at 1 μM
Examples of compounds with documented %-inhibition of DCAMKL2 follow.

structure_string=O=S(=O)(c1cccc2cnccc12)N1CCCNCC1 experimental_value=-2%
structure_string=CNC(=O)c1cc(Oc2ccc(NC(=O)Nc3ccc(Cl)c(C(F)(F)F)c3)c(F)c2)ccn1 experimental_value=-6%
structure_string=Cc1ccc(Nc2nccc(N(C)c3ccc4c(C)n(C)nc4c3)n2)cc1S(N)(=O)=O experimental_value=-2.72%

Could you now consider this next compound?
Asked: Look up %-inhibition of DCAMKL2: CC(=O)Nc1cccc(-n2c(=O)n(C3CC3)c(=O)c3c(Nc4ccc(I)cc4F)n(C)c(=O)c(C)c32)c1
Given back: -2.4%
